tested on: biotinyl-Val-oxazolone; experiment: self-aminoacylation, catalytic enhancement (BVO) (fold over background); higher = more active; k-Seq, kA / k0A0; sequences stand for … in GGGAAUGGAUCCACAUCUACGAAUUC…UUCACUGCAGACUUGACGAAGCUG
Fewer inactive variants are shown than the library holds.
self-aminoacylation overview
// print number alone

AAGUAUGCUAAUAGUCGAAAG [Fam3.1 aminoacylation ribozyme variant]: 1.21
AAGUUUGCUAAUAGACGCAAG [Fam3.1 aminoacylation ribozyme variant]: 0.587
CUACUUCAAACAAUCCAUCUG [Fam1A.1 aminoacylation ribozyme variant]: 0.748
CUACACUUCAAGCAAUCGGGC [Fam1B.1 aminoacylation ribozyme variant]: 1.42
CUACUUAAAACAAUCCGUCUG [Fam1A.1 aminoacylation ribozyme variant]: 0.905
GUUCACCCAGGUCAUCGGGUG [Fam2.2 aminoacylation ribozyme variant]: 3.64
AAGUUUGCUAAUAGUAGCCAG [Fam3.1 aminoacylation ribozyme variant]: 0.769
AUUCAGCUUGGUCAUCGGGUG [Fam2.2 aminoacylation ribozyme variant]: 3.37

get_value(item= AUUCACAUAAGUCAUCGGGUG [Fam2.2 aminoacylation ribozyme variant] , readout=self-aminoacylation) returns 6.79

get_value(item= AUUCACCUCGGUCAUCGCGUG [Fam2.2 aminoacylation ribozyme variant] , readout=self-aminoacylation) returns 7.67

---

test system: biotinyl-Ile-oxazolone; assay: self-aminoacylation, catalytic enhancement (BIO) (fold over background); higher = more active; k-Seq, kA / k0A0; sequences stand for … in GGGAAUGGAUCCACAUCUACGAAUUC…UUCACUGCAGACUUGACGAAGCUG
This sample holds only a part of the variants without activity.
Measured endpoint: self-aminoacylation
// print number alone

// below: answered sequences
CCACACUAGAAGCAAUCGGUC [Fam1B.1 aminoacylation ribozyme variant]: 0.809
AAGUUUGGUAAUAGUCGGAAG [Fam3.1 aminoacylation ribozyme variant]: 0.893
UUUCACCUAGGUCAUCGUGUG [Fam2.2 aminoacylation ribozyme variant]: 1.19
ACACACUACAAGCAAUCGGUC [Fam1B.1 aminoacylation ribozyme variant]: 1.2

get_value(item= AUUCACCUGGCUCAUCGGGUG [Fam2.2 aminoacylation ribozyme variant] , readout=self-aminoacylation) returns 2.18

get_value(item= AUUACCCUGGUCAUCCAGGGA [Fam2.1 aminoacylation ribozyme variant] , readout=self-aminoacylation) returns 1.91

get_value(item= AAUCACCUAGGUCAUCGGGAG [Fam2.2 aminoacylation ribozyme variant] , readout=self-aminoacylation) returns 1.67

get_value(item= AAUUUUGCUAAUACUCGCAAG [Fam3.1 aminoacylation ribozyme variant] , readout=self-aminoacylation) returns 1.5

get_value(item= CGACUUCAAACAAUCGGUCUC [Fam1A.1 aminoacylation ribozyme variant] , readout=self-aminoacylation) returns 1.52

---

tested on: biotinyl-Leu-oxazolone; assay: self-aminoacylation, catalytic enhancement (BLO) (fold over background); higher = more active; k-Seq, kA / k0A0; sequences stand for … in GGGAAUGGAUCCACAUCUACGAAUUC…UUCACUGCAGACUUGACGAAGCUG
This sample holds only a part of the variants without activity.
self-aminoacylation overview
// print number alone

// below: answered sequences
CCACACUUCGAGCCAUCGGUC [Fam1B.1 aminoacylation ribozyme variant]: 1.58
AUUACCCUCGUCUUCGAGUGA [Fam2.1 aminoacylation ribozyme variant]: 5.17
AUUCAACUAGGUCAACGGGUG [Fam2.2 aminoacylation ribozyme variant]: 4.91

Now consider the entry below.
get_value(item= AUUACCCCGGUCAUCGAGGGA [Fam2.1 aminoacylation ribozyme variant] , readout=self-aminoacylation) returns 1.07

---

test system: biotinyl-Met-oxazolone; assay: self-aminoacylation, catalytic enhancement (BMO) (fold over background); higher = more active; k-Seq, kA / k0A0; sequences stand for … in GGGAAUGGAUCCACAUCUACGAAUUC…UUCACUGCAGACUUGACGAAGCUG
This sample holds only a part of the variants without activity.
Each entry gets Not satisfied if its self-aminoacylation stays under 7, and Satisfied if its self-aminoacylation is 7 or above.

AUUCAACUAGGUCAUCGAGUG [Fam2.2 aminoacylation ribozyme variant]: Not satisfied

Prompt: Is self-aminoacylation for AUCCACCUAGGUCAUCGGGCG [Fam2.2 aminoacylation ribozyme variant] at or above 7?
Response: Not satisfied

Prompt: Is self-aminoacylation for AUUACCCUGCUCGUCGAGUGA [Fam2.1 aminoacylation ribozyme variant] at or above 7?
Response: Not satisfied

---

tested on: biotinyl-Phe-oxazolone; test: self-aminoacylation, catalytic enhancement (BFO) (fold over background); higher = more active; k-Seq, kA / k0A0; sequences stand for … in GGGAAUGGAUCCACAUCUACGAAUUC…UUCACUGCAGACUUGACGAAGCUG
This sample holds only a part of the variants without activity.
Each entry gets Not met if its self-aminoacylation stays under 10, and Met if its self-aminoacylation is 10 or above.

CCACACCUCAAGCAAGCGGUC [Fam1B.1 aminoacylation ribozyme variant]: Not met
AUUACCCUGGUCGUGGAGUGA [Fam2.1 aminoacylation ribozyme variant]: Met
AUUCACCUACGCCAUCGGGUG [Fam2.2 aminoacylation ribozyme variant]: Met
GUACUUCAAACCAUCGGUCUG [Fam1A.1 aminoacylation ribozyme variant]: Not met

Prompt: Is self-aminoacylation for CUACAUCAAAUAAUCGGUCUG [Fam1A.1 aminoacylation ribozyme variant] at or above 10?
Response: Not met

Prompt: Is self-aminoacylation for AUUUACCGAGGUCAUCGGGUG [Fam2.2 aminoacylation ribozyme variant] at or above 10?
Response: Met

---

system: biotinyl-Val-oxazolone; assay: self-aminoacylation, catalytic enhancement (BVO) (fold over background); higher = more active; k-Seq, kA / k0A0; sequences stand for … in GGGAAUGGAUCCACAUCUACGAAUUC…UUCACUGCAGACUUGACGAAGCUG
Fewer inactive variants are shown than the library holds.
Each entry gets NOT MET if its self-aminoacylation stays under 3, and MET if its self-aminoacylation is 3 or above.

Record excerpt, results attached:
AGGUUUGCUAAGAGUCGCAAG [Fam3.1 aminoacylation ribozyme variant]: NOT MET
AUUAACCUGGUAAUCGAGUGA [Fam2.1 aminoacylation ribozyme variant]: MET
CUUCUUCACACAAUCGGUCUG [Fam1A.1 aminoacylation ribozyme variant]: NOT MET
CCUCACUUCAGGCAAUCGGUC [Fam1B.1 aminoacylation ribozyme variant]: NOT MET
AAUACCGUGGUCAUCGAGUGA [Fam2.1 aminoacylation ribozyme variant]: NOT MET
AAAUUUGCAAAUAGUCGCAAG [Fam3.1 aminoacylation ribozyme variant]: NOT MET
CCACACUUCAAGGAAUAGGUC [Fam1B.1 aminoacylation ribozyme variant]: NOT MET
CUACUUCAAACAAUUGGUCGG [Fam1A.1 aminoacylation ribozyme variant]: NOT MET

Prompt: Is self-aminoacylation for CUACUCCAAAAAAUCGGUCUG [Fam1A.1 aminoacylation ribozyme variant] at or above 3?
Response: NOT MET

Prompt: Is self-aminoacylation for AUUAGCCUGGUCAUCGAGGGA [Fam2.1 aminoacylation ribozyme variant] at or above 3?
Response: NOT MET

Prompt: Is self-aminoacylation for AUUCACGUAGGUCCUCGGGUG [Fam2.2 aminoacylation ribozyme variant] at or above 3?
Response: MET

Prompt: Is self-aminoacylation for CCACACUUCAAGCAAUCAGUG [Fam1B.1 aminoacylation ribozyme variant] at or above 3?
Response: NOT MET

Prompt: Is self-aminoacylation for AUUAGCCUAGGUCAUCGGGUG [Fam2.2 aminoacylation ribozyme variant] at or above 3?
Response: MET

Prompt: Is self-aminoacylation for AUUUACCUAGGUCAUCGAGUG [Fam2.2 aminoacylation ribozyme variant] at or above 3?
Response: MET

Prompt: Is self-aminoacylation for AUUAGCCUGGUCAUCGACUGA [Fam2.1 aminoacylation ribozyme variant] at or above 3?
Response: NOT MET

Prompt: Is self-aminoacylation for CCACGUCAAACAAUCGGUCUG [Fam1A.1 aminoacylation ribozyme variant] at or above 3?
Response: NOT MET

Prompt: Is self-aminoacylation for AUUACCCUGUUCAUCCAGUGA [Fam2.1 aminoacylation ribozyme variant] at or above 3?
Response: MET

Prompt: Is self-aminoacylation for AUUCCCCUGAUCAUCGAGUGA [Fam2.1 aminoacylation ribozyme variant] at or above 3?
Response: MET

Prompt: Is self-aminoacylation for AAGUUUGCGAAUAGUCCCAAG [Fam3.1 aminoacylation ribozyme variant] at or above 3?
Response: NOT MET

Prompt: Is self-aminoacylation for AUUCACCUAAGUCUUCGGGUG [Fam2.2 aminoacylation ribozyme variant] at or above 3?
Response: MET

Prompt: Is self-aminoacylation for AGACACUUCAAGCAAUCGGUC [Fam1B.1 aminoacylation ribozyme variant] at or above 3?
Response: NOT MET

Prompt: Is self-aminoacylation for CCACACUUCAAGCAAUCGGCC [Fam1B.1 aminoacylation ribozyme variant] at or above 3?
Response: NOT MET

Prompt: Is self-aminoacylation for CUACUUCAAACUACCGGUCUG [Fam1A.1 aminoacylation ribozyme variant] at or above 3?
Response: NOT MET
